# SYSTEM_TESTED: T1, human MSLN-hFc recombinant protein (human, UniProt Q13421 296-580)
# T1 construct: Captured by an anti-human IgG antibody on the chip; also called human MSLN protein; Acro MSN-H5253
# PROCEDURE_SUMMARY: SPR (Biacore 8K), MSLN-hFc captured, antibody injected

[
  {
    "BINDER": "F7.33.24-H2 (scFv, not shown: small tags and cut ends, also called S009-F7.33.24 humanized antibody VH1 + VL2) scFv: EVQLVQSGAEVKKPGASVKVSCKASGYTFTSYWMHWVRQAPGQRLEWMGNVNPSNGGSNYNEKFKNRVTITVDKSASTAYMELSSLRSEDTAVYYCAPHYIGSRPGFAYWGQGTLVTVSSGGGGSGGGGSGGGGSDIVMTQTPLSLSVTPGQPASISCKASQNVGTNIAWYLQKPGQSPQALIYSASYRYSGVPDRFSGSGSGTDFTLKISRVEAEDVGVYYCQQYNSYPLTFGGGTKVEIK",
    "kon / M⁻¹ s⁻¹": 254000
  }
]
